Test system: SNB-75 CNS
Protocol description: NCI tumour cell line growth inhibition, 48 h

[
  {
    "Molecule": "NC(N)=N/N=C/c1cccc(Cl)c1Cl",
    "Experimental system": "SNB-75 CNS",
    "TGI, µM": 26.9
  },
  {
    "Molecule": "CN(C)c1ccc(C2CC(=O)C(C#N)=C(c3ccccc3)NN2C)cc1 (centres undefined)",
    "Experimental system": "SNB-75 CNS",
    "TGI, µM": 7.59
  },
  {
    "Molecule": "COc1cc2ccc1-c1cc(ccc1O)CC1c3cc4c(cc3CCN1C)Oc1c(OC)cc3c(c1O4)C(C2)N(C)CC3 (centres undefined)",
    "Experimental system": "SNB-75 CNS",
    "TGI, µM": 3.52
  },
  {
    "Molecule": "CC(NC(=O)/C(C#N)=C/c1ccc2[nH]ccc2c1)c1ccccc1 (centres undefined)",
    "Experimental system": "SNB-75 CNS",
    "TGI, µM": 60.5
  }
]

----------
Test system: OVCAR-5 ovarian
Protocol description: NCI tumour cell line growth inhibition, 48 h
Measured TGI values are reported for all entries that follow.
Measure name: TGI

[
  {
    "Compound": "O=C(c1cc(Br)ccc1O)c1cc(Br)ccc1O",
    "Reading": "33.3 µM"
  },
  {
    "Compound": "COc1cc(-c2nc(SCC(=O)Nc3ccc(C(C)=O)cc3)[nH]c(=O)c2C#N)cc(OC)c1OC",
    "Reading": "> 100 µM"
  },
  {
    "Compound": "C=C(C)[C@@H]1CC[C@@H](C)[C@](O)([C@@H]2C[C@@H]([C@H](COC(=O)c3ccccc3)OC(=O)c3ccccc3)OC2=O)C1",
    "Reading": "> 100 µM"
  },
  {
    "Compound": "COc1ccc(/C(Cl)=C(\\C=O)c2ccc(OC)c(OC)c2)cc1OC",
    "Reading": "> 48.7 µM"
  },
  {
    "Compound": "CC(F)(F)c1cc(F)ccc1-c1sc2cc(O)ccc2c1Oc1ccc(/C=C/C(=O)O)cc1",
    "Reading": "37.7 µM"
  },
  {
    "Compound": "CN(C)c1nc(N(C)C)n2nc(-c3ccccc3[N+](=O)[O-])nc2n1",
    "Reading": "> 100 µM"
  },
  {
    "Compound": "c1ccc2cc(OCC3CO3)c(OCC3CO3)cc2c1 (centres undefined)",
    "Reading": "23.4 µM"
  },
  {
    "Compound": "Cc1cc(S(=O)(=O)Nc2nc(N)nc(N3CCOCC3)n2)c(SCC(=O)O)cc1Cl",
    "Reading": "> 10 µM"
  },
  {
    "Compound": "Cc1cccc2c1Oc1cc(Cl)ccc1C2NC(=O)CN(C)C (centres undefined)",
    "Reading": "> 100 µM"
  },
  {
    "Compound": "O=C1NC(=O)C2(CCC(O)C2)c2cc[n+]([O-])cc21 (centres undefined)",
    "Reading": "> 100 µM"
  },
  {
    "Compound": "c1ccc2c[n+](CCCCCCCCCC[n+]3ccc4ccccc4c3)ccc2c1",
    "Reading": "> 10 µM"
  },
  {
    "Compound": "C=CC[Se]C(=O)Cc1c(C)n(C(=O)c2ccc(Cl)cc2)c2ccc(OC)cc12",
    "Reading": "3.21 µM"
  },
  {
    "Compound": "OCC(O)COc1c(Cl)ccc(Cl)c1Cl (centres undefined)",
    "Reading": "> 100 µM"
  },
  {
    "Compound": "O=C(CCc1ccccc1)On1nnc2ccccc2c1=O",
    "Reading": "> 100 µM"
  }
]
